- target desc: FLuc-C-HiBiT (firefly luciferase) (Photinus pyralis, UniProt P08659, form not given/L550V)
- Sequence (P08659 2-550 L550V, form open): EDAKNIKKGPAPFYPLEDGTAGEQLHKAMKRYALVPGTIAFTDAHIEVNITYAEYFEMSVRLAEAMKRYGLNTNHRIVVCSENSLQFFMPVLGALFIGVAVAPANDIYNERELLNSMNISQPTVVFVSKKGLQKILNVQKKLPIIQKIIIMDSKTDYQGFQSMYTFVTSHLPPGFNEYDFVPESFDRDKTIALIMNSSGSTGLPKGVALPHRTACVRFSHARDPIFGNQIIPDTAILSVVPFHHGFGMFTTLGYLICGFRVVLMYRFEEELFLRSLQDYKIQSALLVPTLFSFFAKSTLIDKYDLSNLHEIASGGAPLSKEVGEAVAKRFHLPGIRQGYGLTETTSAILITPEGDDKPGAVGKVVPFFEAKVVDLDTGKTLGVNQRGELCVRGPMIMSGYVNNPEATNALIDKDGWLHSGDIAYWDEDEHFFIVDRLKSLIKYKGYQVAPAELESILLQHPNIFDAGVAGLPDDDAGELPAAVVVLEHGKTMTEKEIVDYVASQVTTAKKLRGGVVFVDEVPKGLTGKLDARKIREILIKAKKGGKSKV
- assay comment: Firefly luciferase (FLuc) enzymatic luminescence assay, FLuc-C-HiBiT
- Type: biochemical
- Set-up: key: % normalized; no enzyme control = 100% inhibition, DMSO = 0
- test conditions: 10 nM FLuc-C-HiBiT; normalized activity; Log [Compound], M -8.78
Each entry below carries its reported FLuc Enzyme.
Please respond with just the number, no unit label.

Here are 2 molecules together with their reported answers.
                                   molecule  readout_name  result
0  CNC(=O)c1cccc2c1CCN2C(=O)Nc1ccc(C)cc1 [compound 00430160]   FLuc Enzyme     3.2
1  COc1ccc(-c2nc(-c3ccc(C(=O)O)cc3)no2)cc1 [compound 00168104]   FLuc Enzyme     3.2

Task: Which FLuc Enzyme is listed for O=C(O)c1cccc2c1CCN2C(=O)Nc1ccc(F)cc1 [compound 00432687] ?
Result: -23.3

Task: Endpoint output: FLuc Enzyme of O=C(O)CCSc1nnc(-c2ccc(Cl)cc2Cl)o1 [compound 00103142] . Value?
Result: 0.325

Task: For the molecule shown here, Cc1ccc(-n2ncc3c(N4CCCCCC4)ncnc32)cc1 [compound 00139018] , give the reported FLuc Enzyme.
Result: 0.4

* * *

- target desc: FLuc-C-HiBiT (firefly luciferase) (Photinus pyralis, UniProt P08659, form not given/L550V)
- assay comment: SDR assay, FLuc-C-HiBiT
- test conditions: 10 nM FLuc-C-HiBiT; normalized activity; Log [Compound], M -5.91
readout name: SDR No ATP
// return just the number, without any unit appended

Previously resolved entries follow.
>>> print(df.to_string())
                                   compound  result
0  CC(CNC(=O)C1CCN(C(=O)c2ncn3c2COC(c2ccccc2)C3)CC1)c1ccccc1 (centres unmarked)    13.6
1   COc1ccc(-c2nc(-c3ccc(C(=O)O)cc3)no2)cc1    17.5
2  CC1CCCN(c2ncnc3c2cnn3-c2ccccc2)C1 (centres unmarked)    30.2
3     CNC(=O)c1cccc2c1CCN2C(=O)Nc1ccc(C)cc1    18.4
4       Fc1ccc(-c2cn3cc(Cc4ccccc4)sc3n2)cc1    29.4
5         O=C(O)CCSc1nnc(-c2ccc(Cl)cc2Cl)o1    16.1
6      O=C(O)c1cccc2c1CCN2C(=O)Nc1ccc(F)cc1    26.9

Task: Returns the measured SDR No ATP for the input compound. Input: Cc1ccc(-n2ncc3c(N4CCCCCC4)ncnc32)cc1
Result: 37.5

* * *

- target desc: ABL1-N-HiBiT kinase domain (Homo sapiens)
- Sequence (P00519 233-500): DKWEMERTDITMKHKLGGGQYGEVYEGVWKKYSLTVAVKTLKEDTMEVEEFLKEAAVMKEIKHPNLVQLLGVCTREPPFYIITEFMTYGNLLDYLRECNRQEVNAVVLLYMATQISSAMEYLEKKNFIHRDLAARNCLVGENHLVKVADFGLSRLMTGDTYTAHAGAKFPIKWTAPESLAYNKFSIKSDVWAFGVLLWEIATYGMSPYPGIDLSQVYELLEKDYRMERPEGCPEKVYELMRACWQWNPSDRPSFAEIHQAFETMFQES
- assay comment: SDR assay, ABL1-N-HiBiT
Checkbox rule: SDR Ave Max Response lower than 1 = met; SDR Ave Max Response not lower than 1 = not met.

Field: example entries. Status: answers known.
>>> print(df.to_string())
                                   compound  class_assignment
0  Cc1ccc(C(=O)Nc2ccc(CN3CCN(C)CC3)c(C(F)(F)F)c2)cc1C#Cc1cnc2[nH]ncc2c1 [GZD-824]           not met
1  FC(F)(F)c1ccc(/C=C/c2nc(COc3ccc(CCCCn4ccnn4)cc3)co2)cc1 [Mubritinib]           not met
2  COc1ccc(-n2c(SCC#N)nc3sc4c(c3c2=O)CCCC4)cc1 [Necrostatin-5]               met
3  COc1cc2c(Oc3ccc4[nH]c(C)cc4c3F)ncnc2cc1OCCCN1CCCC1 [Cediranib]           not met
4  COc1cc2c(N3CCN(C(=O)Nc4ccc(OC(C)C)cc4)CC3)ncnc2cc1OCCCN1CCCCC1 [Tandutinib]           not met

Now for a further compound.
Task: Input COc1cc(N2CCN(C)CC2)ccc1Nc1nc(N)c(C(=O)c2c(Cl)cccc2Cl)s1 [HMSL10089] ; condition: SDR Ave Max Response strictly below 1. Does it hold?
Result: met
